experiment: Inhibition of HCV NS5B polymerase; design: species or system Hepacivirus hominis
What log10(IC50) was measured for each of the following?
Scale: decimal log of IC50, IC50 in nM.

- given-smiles: "CC(=O)Nc1nc([C@H](Cc2ccc(O)cc2)NC(=O)c2ccc3c(c2)nc(-c2ccoc2)n3C2CCCCC2)c[nH]1"
  log10(IC50): 3.62
- given-smiles: "Cc1nc([C@H](Cc2ccc(O)cc2)NC(=O)c2ccc3c(c2)nc(-c2ccoc2)n3C2CCCCC2)cs1"
  log10(IC50): 3.52
- given-smiles: "O=C(O)c1ccc2c(c1)nc(-c1ccoc1)n2C1CCCCC1"
  log10(IC50): 3.20
- given-smiles: "Cc1nc([C@H](Cc2c[nH]c3ccc(O)cc23)NC(=O)c2ccc3c(c2)nc(-c2ccoc2)n3C2CCCCC2)cs1"
  log10(IC50): 2.48

Batch request: log10(IC50) per item, same order as input.
1. CC(=O)Nc1nc([C@H](Cc2ccc(O)cc2)NC(=O)c2ccc3c(c2)nc(-c2ccoc2)n3C2CCCCC2)cs1
2. CNc1nc([C@H](Cc2c[nH]c3ccc(O)cc23)NC(=O)c2ccc3c(c2)nc(-c2ccoc2)n3C2CCCCC2)cs1
3. COC(=O)[C@H](Cc1c[nH]c2ccc(O)cc12)NC(=O)c1ccc2c(c1)nc(-c1ccoc1)n2C1CCCCC1
4. CC(C)[C@H](Cc1ccc(O)cc1)NC(=O)c1ccc2c(c1)nc(-c1ccoc1)n2C1CCCCC1
5. Nc1nc([C@H](Cc2c[nH]c3ccc(O)cc23)NC(=O)c2ccc3c(c2)nc(-c2ccoc2)n3C2CCCCC2)cs1
6. COc1ccc(CCNC(=O)c2ccc3c(c2)nc(-c2ccccn2)n3C2CCCCC2)cc1OC
7. O=C(N[C@@H](Cc1ccc(O)cc1)C(=O)NCc1cccnc1)c1ccc2c(c1)nc(-c1ccoc1)n2C1CCCCC1

[3.68, 2.70, 2.58, 3.63, 2.28, 4.08, 3.41]

Batch of 2 compounds: report log10(IC50) for each.
1. Nc1nc([C@H](Cc2ccc(O)cc2)NC(=O)c2ccc3c(c2)nc(-c2ccoc2)n3C2CCCCC2)cs1
2. O=C(N[C@@H](Cc1ccc(O)cc1)C(=O)Nc1cccnc1)c1ccc2c(c1)nc(-c1ccoc1)n2C1CCCCC1

1. 3.11
2. 3.48

Field: log10(IC50). Fill in for each record below.
1. CN1CCN(C(=O)[C@H](Cc2ccc(O)cc2)NC(=O)c2ccc3c(c2)nc(-c2ccoc2)n3C2CCCCC2)CC1
2. CN(C)c1nc([C@H](Cc2ccc(O)cc2)NC(=O)c2ccc3c(c2)nc(-c2ccoc2)n3C2CCCCC2)cs1

4.04
3.71

Please give log10(IC50), item by item, for the list that follows.
1. CNc1nc([C@H](Cc2ccc(O)cc2)NC(=O)c2ccc3c(c2)nc(-c2ccoc2)n3C2CCCCC2)cs1
2. O=C(N[C@@H](Cc1ccc(O)cc1)C(=O)N1CCOCC1)c1ccc2c(c1)nc(-c1ccoc1)n2C1CCCCC1

3.45
3.98

Value source: ChEMBL document CHEMBL1149312
